Test system: colon cancer cell line (SW480)
protocol notes: MTS in vitro cytotoxicity, SW480
Assay type: cell-based
experimental context: 72 hours, Table 1, read-out: IC50 values against SW480
IC50: recorded values
measurement label: IC50 (µM)

N.N.[Cl][Pt][Cl] [cisplatin, cis-[Pt^II(NH3)2Cl2], reference compound]; 8
[NH2][Pt]1([NH2])[O]C(=O)CC(=O)[O]1 [cis-[Pt(NH3)2(mal)]]; 23.2
[NH2][Pt]1([NH2])[O]C(=O)C(Cc2ccc(NC(=O)CCCCCCC(=O)NO)cc2)C(=O)[O]1 [cis-[Pt(NH3)2(malSAHA−2H)], cis-[Pt(NH3)2(malSAHA−2H)].3H2O]; 13.4

* * *

# key: entry, value: IC50
Tested on: non-tumorigenic human dermal fibroblast cell line (NHDF)
protocol notes: MTS in vitro cytotoxicity, NHDF
Type: cell-based
experimental context: 72 hours, MTS, Table 5; read-out: IC50 (μM) ± S.E.M. against NHDF
measurement label: IC50

[NH2][Pt]1([NH2])[O]C(=O)C(Cc2ccc(NS(=O)(=O)c3ccc(/C=C/C(=O)NO)cc3)cc2)C(=O)[O]1 [cis-[Pt(NH3)2(malBel−2H)], cis-[Pt(NH3)2(malBel−2H)].1.5H2O]; 33.9 µM
N.N.[Cl][Pt][Cl] [cisplatin, cis-[Pt^II(NH3)2Cl2], reference compound]; 2.4 µM
O=C(/C=C/c1ccc(S(=O)(=O)Nc2ccc(CC(C(=O)O)C(=O)O)cc2)cc1)NO; 28.9 µM

These measurements were taken from patent US8901337B2.
